Cited source: ChEMBL document CHEMBL5143713

# target.or.system: Bifunctional dihydrofolate reductase-thymidylate synthase (Trypanosoma brucei brucei)
# Sequence (Q27783 whole entry): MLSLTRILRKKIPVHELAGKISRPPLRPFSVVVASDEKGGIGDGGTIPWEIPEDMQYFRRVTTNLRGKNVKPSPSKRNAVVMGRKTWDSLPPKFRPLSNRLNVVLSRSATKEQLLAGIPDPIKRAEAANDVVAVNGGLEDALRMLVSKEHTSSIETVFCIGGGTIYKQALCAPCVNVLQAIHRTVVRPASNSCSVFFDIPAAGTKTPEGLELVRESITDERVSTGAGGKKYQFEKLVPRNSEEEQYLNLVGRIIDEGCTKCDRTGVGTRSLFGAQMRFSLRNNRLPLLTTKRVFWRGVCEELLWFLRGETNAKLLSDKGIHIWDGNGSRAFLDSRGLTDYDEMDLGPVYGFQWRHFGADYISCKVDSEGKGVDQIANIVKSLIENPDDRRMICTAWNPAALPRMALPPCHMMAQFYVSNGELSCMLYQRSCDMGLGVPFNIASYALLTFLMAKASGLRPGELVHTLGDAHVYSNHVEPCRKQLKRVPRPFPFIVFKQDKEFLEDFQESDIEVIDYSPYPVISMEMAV
# method.description: Inhibition of recombinant Trypanosoma brucei DHFR-TS expressed in Escherichia coli BL21 (DE3) cells using dihydrofolate as substrate in presence of NADPH by spectrophotometric analysis
I'd be grateful if you could share measured pIC50 for these entries.
The meaning of pIC50 here: minus log10 of the concentration in molar units.

Test system Bifunctional dihydrofolate reductase-thymidylate synthase (Trypanosoma brucei brucei); read-out pIC50; what value for CCOC(=O)C1CCN(C(=O)c2ccc(N(CC)Cc3cnc4nc(N)nc(N)c4n3)cc2)CC1 ?
6.64

Form field: pIC50 recorded for Nc1nc(N)c2nc(CNc3ccc(C(=O)c4ccccc4)cc3)cnc2n1 with Bifunctional dihydrofolate reductase-thymidylate synthase (Trypanosoma brucei brucei) (enter value)
6.00

Record lookup: for Bifunctional dihydrofolate reductase-thymidylate synthase (Trypanosoma brucei brucei), what pIC50 belongs to Nc1nc(N)c2nc(CNc3ccc(C(=O)NCCc4ccccc4)cc3)cnc2n1 ?
6.01

Quick check: pIC50 on Bifunctional dihydrofolate reductase-thymidylate synthase (Trypanosoma brucei brucei), item CCOC(=O)C1CCCN1C(=O)c1ccc(NCc2cnc3nc(N)nc(N)c3n2)cc1 (centres undefined) ?
6.01

Record lookup: for Bifunctional dihydrofolate reductase-thymidylate synthase (Trypanosoma brucei brucei), what pIC50 belongs to CN(Cc1cnc2nc(N)nc(N)c2n1)c1ccc(C(=O)N2CCCCC2)cc1 ?
5.84

Report pIC50 for COC(=O)C1CCN(C(=O)c2ccc(N(CCCO)Cc3cnc4nc(N)nc(N)c4n3)cc2)CC1 tested on Bifunctional dihydrofolate reductase-thymidylate synthase (Trypanosoma brucei brucei).
6.37

Entry NC(=O)C1CCN(C(=O)Cc2ccc(N(CCCO)Cc3cnc4nc(N)nc(N)c4n3)cc2)CC1 , system Bifunctional dihydrofolate reductase-thymidylate synthase (Trypanosoma brucei brucei): what pIC50 was measured?
4.74

# returns recorded pIC50 (system: Bifunctional dihydrofolate reductase-thymidylate synthase (Trypanosoma brucei brucei)) for COC(=O)C1CCN(C(=O)c2ccc(N(C)Cc3cnc4nc(N)nc(N)c4n3)cc2)CC1
6.57

Form field: pIC50 recorded for COC(=O)C1CCN(C(=O)c2ccc(SCc3cnc4nc(N)nc(N)c4n3)nc2)CC1 with Bifunctional dihydrofolate reductase-thymidylate synthase (Trypanosoma brucei brucei) (enter value)
5.62

====

# target.or.system: CYP2D6 (Homo sapiens, UniProt P10635)
# Sequence (P10635 whole entry): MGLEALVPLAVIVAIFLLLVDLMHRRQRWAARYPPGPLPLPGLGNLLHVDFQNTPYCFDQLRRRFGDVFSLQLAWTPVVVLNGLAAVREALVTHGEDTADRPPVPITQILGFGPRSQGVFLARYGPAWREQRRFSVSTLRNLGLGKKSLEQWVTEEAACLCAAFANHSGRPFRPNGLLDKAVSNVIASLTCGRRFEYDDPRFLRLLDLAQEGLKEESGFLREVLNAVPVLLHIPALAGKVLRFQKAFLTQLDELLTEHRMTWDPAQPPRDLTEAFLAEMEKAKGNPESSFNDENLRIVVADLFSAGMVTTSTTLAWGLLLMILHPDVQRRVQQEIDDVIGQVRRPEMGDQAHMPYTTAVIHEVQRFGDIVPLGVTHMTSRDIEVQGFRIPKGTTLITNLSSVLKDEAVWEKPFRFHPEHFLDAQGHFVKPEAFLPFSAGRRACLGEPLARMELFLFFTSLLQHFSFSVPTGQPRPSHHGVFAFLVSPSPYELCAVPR
# method.description: Inhibition of CYP2D6 (unknown origin) expressed in baculovirus-infected insect cells at 10 uM using CYP/Luciferin as substrate incubated for 30 mins in presence of NADPH by luminescence based analysis relative to control
# Format: ADME
# details: probe CYP/Luciferin
measured.attribute: inhibition at 0.5 h, 10 µM

What value of measured inhibition at 0.5 h, 10 µM is listed for COC(=O)C1CCN(C(=O)c2ccc(N(CCO)Cc3cnc4nc(N)nc(N)c4n3)cc2)CC1 ?
0%

====

# target.or.system: CYP3A4 (Homo sapiens, UniProt P08684)
# Sequence (P08684 whole entry): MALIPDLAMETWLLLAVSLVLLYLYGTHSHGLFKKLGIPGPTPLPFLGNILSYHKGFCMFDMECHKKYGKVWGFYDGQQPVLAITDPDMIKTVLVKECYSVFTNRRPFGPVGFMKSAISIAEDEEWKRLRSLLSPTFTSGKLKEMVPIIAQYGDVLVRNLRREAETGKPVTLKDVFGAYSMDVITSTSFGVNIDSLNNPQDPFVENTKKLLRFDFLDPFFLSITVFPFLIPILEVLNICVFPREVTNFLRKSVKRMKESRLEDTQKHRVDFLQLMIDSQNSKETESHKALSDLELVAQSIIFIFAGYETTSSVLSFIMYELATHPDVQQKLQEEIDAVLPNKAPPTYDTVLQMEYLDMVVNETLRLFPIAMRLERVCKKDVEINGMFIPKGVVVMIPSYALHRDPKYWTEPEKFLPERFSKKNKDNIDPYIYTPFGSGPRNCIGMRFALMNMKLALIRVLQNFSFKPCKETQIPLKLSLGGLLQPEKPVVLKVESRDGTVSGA
# method.description: Inhibition of CYP3A4 (unknown origin) expressed in baculovirus-infected insect cells at 10 uM using CYP/Luciferin as substrate incubated for 30 mins in presence of NADPH by luminescence based analysis relative to control
# Format: ADME
# details: probe CYP/Luciferin
Can you tell me inhibition at 0.5 h, 10 µM for the items I'm about to list?
The answer is to be given in %; state only the numeric part.

Would you mind telling me what inhibition at 0.5 h, 10 µM value was observed for NC(=O)C1CCCN1C(=O)Cc1ccc(N(CCCO)Cc2cnc3nc(N)nc(N)c3n2)cc1 (stereo not drawn) ?
0

Look up inhibition at 0.5 h, 10 µM: COc1ccc(Oc2ccc(CNCc3cnc4nc(N)nc(N)c4n3)cc2)cc1
33

May I ask what inhibition at 0.5 h, 10 µM has been recorded for Nc1nc(N)c2nc(CNc3ccc(C(=O)c4ccccc4)cc3)cnc2n1 ?
17
